Reference source for all entries: patent US20240360228A1

Each record here notes measured % Blocking.
Molecular target: T1, human chemokine (C-C motif) receptor 8 (CCR8) (human, UniProt P51685 1-355)
T1 construct: On human peripheral blood lymphocytes / PBMC (native) or on human CCR8 GFP-transfected Ba/F3 cells; also called hCCR8; human CCR8
T1 sequence (P51685 whole entry): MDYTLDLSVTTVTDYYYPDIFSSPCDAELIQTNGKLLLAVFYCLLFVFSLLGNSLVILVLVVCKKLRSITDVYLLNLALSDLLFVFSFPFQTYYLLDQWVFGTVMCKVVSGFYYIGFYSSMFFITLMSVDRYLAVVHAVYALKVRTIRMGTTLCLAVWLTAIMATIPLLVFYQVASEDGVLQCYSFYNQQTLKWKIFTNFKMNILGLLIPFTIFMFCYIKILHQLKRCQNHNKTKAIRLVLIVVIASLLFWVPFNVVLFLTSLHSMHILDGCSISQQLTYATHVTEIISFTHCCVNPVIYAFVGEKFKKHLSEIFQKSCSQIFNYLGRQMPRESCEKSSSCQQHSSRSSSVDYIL
Test: flow cytometry blocking, PBMC CCR8+ CD4+ cells; competitor PE-AB4 (its MFI is read)
Description: For blocking studies, 100 μL of the cell suspension were incubated with 10 μg purified isotype control, AB1, AB2, AB3, AB4, AB5, AB8, AB9, AB10, AB11, AB12, AB13, AB14, AB15, and Commercial ABI antibodies, or isotype control, as blocking agents. […]
Numbers only here, please. The scale is %.

Q) If you can, please state the reported % Blocking value of AB11 (antibody, V domains shown, Hybridoma monoclonal; also called antibody 11; clone 11) VH: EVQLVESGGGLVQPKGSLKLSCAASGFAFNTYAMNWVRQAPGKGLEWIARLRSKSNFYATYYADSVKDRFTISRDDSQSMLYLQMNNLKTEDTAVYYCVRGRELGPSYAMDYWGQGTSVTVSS VL: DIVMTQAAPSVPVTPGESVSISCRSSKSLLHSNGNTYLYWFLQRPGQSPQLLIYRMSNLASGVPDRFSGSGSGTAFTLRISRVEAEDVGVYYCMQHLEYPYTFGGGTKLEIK .
A) -53.4

Q) Could you tell me which % Blocking is on file for AB8 (antibody, V domains shown, Hybridoma monoclonal; also called antibody 8; clone 8) VH: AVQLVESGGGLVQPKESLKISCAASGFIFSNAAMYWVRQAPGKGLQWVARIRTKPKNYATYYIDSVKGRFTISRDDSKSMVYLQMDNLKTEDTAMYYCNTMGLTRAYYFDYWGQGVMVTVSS VL: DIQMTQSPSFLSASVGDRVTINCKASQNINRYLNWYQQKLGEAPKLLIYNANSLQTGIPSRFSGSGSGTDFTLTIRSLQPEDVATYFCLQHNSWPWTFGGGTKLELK ?
A) -40.9

Please find the next binder below.
Q) Name the reported % Blocking value associated with the binder AB3 (antibody, V domains shown, Hybridoma monoclonal; also called antibody 3; clone 3) VH: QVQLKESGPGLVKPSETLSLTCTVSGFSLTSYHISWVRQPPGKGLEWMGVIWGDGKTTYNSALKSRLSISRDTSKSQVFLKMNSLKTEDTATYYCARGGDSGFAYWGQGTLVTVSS VL: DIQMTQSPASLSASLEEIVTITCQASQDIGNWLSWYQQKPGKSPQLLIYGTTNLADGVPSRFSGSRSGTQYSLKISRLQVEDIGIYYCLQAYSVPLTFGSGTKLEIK
A) 34.6
